The reported measurements were obtained from PubChem BioAssay (NCI).

# Test system: IGROV1 ovarian
# TEST DESCRIPTION: NCI-60 one-dose screen, 48 h
# RECORDED CONDITIONS: 10 µM unless noted
# Procedure: Growth inhibition of the IGROV1 human tumor cell line is measured as a screen for anti-cancer activity. Cells are grown in 96 well plates and exposed to the test compound for 48 hours. Compounds are tested at a single concentration, which is 10^-5 M for most compounds. The reported endpoint is percent growth (GI% or GIPRCNT), where numbers from 0 - 100% represent growth inhibition, and numbers from -100% - 0 represent cell death. For example, a value of 40 represents 60% growth inhibition. […]
About 83,000 compounds went through this panel and 20% of them were active in at least one assay; those are over-represented in the sample as a whole. Activity calls are given as the source filed them. How the source made its calls: active means growth percent below 10; inactive means the rest.
Labels: class 1 for active, class 0 for inactive

[
  {
    "COMPOUND": "CCCCCCCC/C=C\\CCCCCCCCOc1ccccc1CC(=O)NCC[N+]1(C)CCCCC1",
    "CATEGORY": "class 0"
  },
  {
    "COMPOUND": "O=C1Nc2ccccc2/C1=C/c1cn(C[C@@H](O)Cn2c3ccccc3c(=O)c3ccccc32)c2ccccc12",
    "CATEGORY": "class 0"
  },
  {
    "COMPOUND": "C=C1C(=O)O[C@H]2[C@H]1CC/C(CNC(=O)c1cc3ccccc3[nH]1)=C\\CC[C@@]1(C)O[C@@H]21",
    "CATEGORY": "class 1"
  },
  {
    "COMPOUND": "CN(C)c1ccc(/C=C/C(=O)c2ccccc2)cc1",
    "CATEGORY": "class 0"
  },
  {
    "COMPOUND": "O=C1CCC(C(=O)NN(c2ccccc2)c2ccccc2)N1 (centres undefined)",
    "CATEGORY": "class 0"
  },
  {
    "COMPOUND": "O=C(CCCCNC(=O)c1cc(=O)c(O)co1)Nc1ccccc1",
    "CATEGORY": "class 0"
  },
  {
    "COMPOUND": "CCN(CC)S(=O)(=O)c1ccc(S(=O)(=O)N2CCC[C@@H](C(=O)N3CCN(C(=O)OC(C)(C)C)CC3)C2)cc1",
    "CATEGORY": "class 0"
  },
  {
    "COMPOUND": "NC(=S)N/N=C/c1cn(-c2ccccc2)nc1-c1cc2ccccc2oc1=O",
    "CATEGORY": "class 0"
  },
  {
    "COMPOUND": "CN1CCN(c2ccc3c(c2)nc(NNC(=O)c2cnccn2)c2cccn23)CC1",
    "CATEGORY": "class 0"
  },
  {
    "COMPOUND": "O=S(=O)(c1ccccc1)N1CCCN(c2nc(-c3ccccc3)nc3nc(-c4ccccc4)oc23)CC1",
    "CATEGORY": "class 0"
  },
  {
    "COMPOUND": "CCOC(=O)c1c(C)c2c(n1C)CSc1cc(S(=O)(=O)c3ccccc3)c(=O)[nH]c1-2",
    "CATEGORY": "class 0"
  },
  {
    "COMPOUND": "C[C@H]1[C@H](C)CC[C@]2(C(=O)O)CC[C@]3(C)C(=CC[C@@H]4[C@@]5(C)C[C@@H](Cc6cn([C@@H]7O[C@H](CO)[C@@H](O)[C@H](O)[C@H]7O)nn6)[C@H](O)C(C)(C)[C@@H]5CC[C@]43C)[C@H]12",
    "CATEGORY": "class 0"
  },
  {
    "COMPOUND": "C/C(=N\\Nc1nc(C)cs1)c1cc2ccccc2o1",
    "CATEGORY": "class 0"
  },
  {
    "COMPOUND": "COc1cccc(NC(=O)c2cccc(C3CCc4c(cc(OC)c(OC)c4OC)O3)c2)c1 (centres undefined)",
    "CATEGORY": "class 0"
  },
  {
    "COMPOUND": "COC(=O)c1nc(-c2ccccc2)oc1S(=O)(=O)N1CCC(C(N)=O)CC1",
    "CATEGORY": "class 0"
  },
  {
    "COMPOUND": "Cc1ccc(N=Nc2c(N)nn(-c3ccccc3)c2N)cc1",
    "CATEGORY": "class 0"
  },
  {
    "COMPOUND": "CCc1ccc(CCC(=O)Nc2ncc(Cc3ccc(Cl)cc3)s2)o1",
    "CATEGORY": "class 0"
  },
  {
    "COMPOUND": "COc1ccc(Cn2cc(C(=O)N=Nc3c(O)[nH]c4c(Cl)cccc34)nn2)cc1",
    "CATEGORY": "class 0"
  },
  {
    "COMPOUND": "Cc1nc2sc(C(=O)Nc3ccc(Cl)cc3)c(N)c2cc1C(O)c1ccccc1 (centres undefined)",
    "CATEGORY": "class 0"
  },
  {
    "COMPOUND": "COc1cc(OC)cc(C2C(C#N)=C(N)Oc3c2ccc2ccc(O)cc32)c1 (centres undefined)",
    "CATEGORY": "class 0"
  },
  {
    "COMPOUND": "O=C(CN1CCN(c2cc3c(cc2F)c(=O)c(C(=O)O)cn3C2CC2)CC1)N/N=C/c1ccncc1",
    "CATEGORY": "class 0"
  },
  {
    "COMPOUND": "C#CCOc1ccc2ncnc(Nc3cccc(NC(=O)CCl)c3)c2c1",
    "CATEGORY": "class 1"
  },
  {
    "COMPOUND": "CCN(CC)c1ccc(/C=C\\c2cc(C)c3cc(C)ccc3n2)cc1",
    "CATEGORY": "class 0"
  },
  {
    "COMPOUND": "COc1ccc(NC(=O)c2ccc(C(=O)Nc3ccc(OC)cc3OC)cc2)c(OC)c1",
    "CATEGORY": "class 0"
  },
  {
    "COMPOUND": "Cc1ccc(-c2nc(C(Cl)Cl)nc3cc(C)nn23)cc1",
    "CATEGORY": "class 1"
  },
  {
    "COMPOUND": "Cc1ccc(Nc2nc(-c3ccc(F)cc3)c(C#N)c(=O)n2C)cc1",
    "CATEGORY": "class 0"
  },
  {
    "COMPOUND": "CCOC(=O)Nc1nc2ccc(SCC(C)C)cc2s1",
    "CATEGORY": "class 0"
  },
  {
    "COMPOUND": "O=C1NC(=O)c2c1c1c3ccccc3[nH]c1c1oc3cc(Br)ccc3c21",
    "CATEGORY": "class 0"
  },
  {
    "COMPOUND": "Cc1ccccc1CNc1c2ccccc2nc2ccccc12",
    "CATEGORY": "class 0"
  },
  {
    "COMPOUND": "O=C(O)c1cccc(N/C=C/C(=O)c2cc3cc(Br)ccc3oc2=O)c1",
    "CATEGORY": "class 0"
  },
  {
    "COMPOUND": "CCOC(=O)C(=Cc1cccc(C#N)c1)C(=O)OCC",
    "CATEGORY": "class 0"
  },
  {
    "COMPOUND": "CC(=O)Nc1c(Cl)cc(Cl)c2c1Cc1cc([N+](=O)[O-])ccc1-2",
    "CATEGORY": "class 0"
  },
  {
    "COMPOUND": "C[C@@H](CO)[C@@H]1CC[C@]2(C(=O)N3CCN(C)CC3)CC[C@]3(C)[C@H](CC[C@@H]4[C@@]5(C)CC[C@H](O)C(C)(C)[C@@H]5CC[C@]43C)[C@@H]12",
    "CATEGORY": "class 0"
  },
  {
    "COMPOUND": "O=C1NC(=C(Cl)Cl)/C(=N/S(=O)(=O)NCCc2c[nH]c3ccccc23)N1",
    "CATEGORY": "class 0"
  },
  {
    "COMPOUND": "CC(C)CCC[C@@H](C)C1CCC2C3CCC4=C/C(=N/OCCN(C)C)CC[C@]4(C)C3CC[C@@]21C (some centres undefined)",
    "CATEGORY": "class 0"
  },
  {
    "COMPOUND": "O=C(Cn1nnc([N+](=O)[O-])n1)c1ccccc1",
    "CATEGORY": "class 0"
  },
  {
    "COMPOUND": "COc1cccc(/C=C2\\COc3ccc(O)cc3C2=O)c1",
    "CATEGORY": "class 0"
  },
  {
    "COMPOUND": "COc1ccc(/C=C/C(=O)c2cc3c(N)c(C(=O)Nc4ccc(OC)cc4)sc3nc2C)cc1",
    "CATEGORY": "class 0"
  },
  {
    "COMPOUND": "CC(C)CN1CC(C(=O)Nc2ccc3c(c2)-c2ccccc2C3)CC1=O (centres undefined)",
    "CATEGORY": "class 0"
  }
]
